assay: Lipophilicity, logD of the compound at pH 7.4; assay type: physicochemical; details: buffer
Response key: condition met means logD >= 2; condition not met means logD < 2.

{"chemical-string": "COc1cccc(CC(=O)N2Cc3ccc(S(=O)(=O)Nc4cnn(C5COC5)n4)cc3C2)c1", "assigned-class": "condition not met"}
{"chemical-string": "COc1cccc(CC(=O)N2Cc3ccc(S(=O)(=O)Nc4cnn(C5CCC5)n4)cc3C2)c1", "assigned-class": "condition not met"}
{"chemical-string": "COc1cccc(CC(=O)N2Cc3ccc(S(=O)(=O)NCCc4cccc(F)c4)cc3C2)c1", "assigned-class": "condition met"}
{"chemical-string": "COc1cccc(CC(=O)N2Cc3ccc(S(=O)(=O)Nc4cnn(-c5ccc(F)cc5)n4)cc3C2)c1", "assigned-class": "condition met"}
{"chemical-string": "COc1cccc(CC(=O)N2Cc3ccc(S(=O)(=O)Nc4cnn(C(C)C)n4)cc3C2)c1", "assigned-class": "condition not met"}

====

assay: Half life in mouse at 1 mg/kg, iv; type: ADME, organism-based; conditions: in vivo

{"chemical-string": "COc1cccc(CC(=O)N2Cc3ccc(S(=O)(=O)Nc4cnn(C5CCC5)n4)cc3C2)c1", "half-life, min": 84}

====

target: Peroxisome proliferator-activated receptor gamma (Homo sapiens, UniProt P37231); assay: Inhibition of PPARgamma (unknown origin)
Sequence (P37231 whole entry): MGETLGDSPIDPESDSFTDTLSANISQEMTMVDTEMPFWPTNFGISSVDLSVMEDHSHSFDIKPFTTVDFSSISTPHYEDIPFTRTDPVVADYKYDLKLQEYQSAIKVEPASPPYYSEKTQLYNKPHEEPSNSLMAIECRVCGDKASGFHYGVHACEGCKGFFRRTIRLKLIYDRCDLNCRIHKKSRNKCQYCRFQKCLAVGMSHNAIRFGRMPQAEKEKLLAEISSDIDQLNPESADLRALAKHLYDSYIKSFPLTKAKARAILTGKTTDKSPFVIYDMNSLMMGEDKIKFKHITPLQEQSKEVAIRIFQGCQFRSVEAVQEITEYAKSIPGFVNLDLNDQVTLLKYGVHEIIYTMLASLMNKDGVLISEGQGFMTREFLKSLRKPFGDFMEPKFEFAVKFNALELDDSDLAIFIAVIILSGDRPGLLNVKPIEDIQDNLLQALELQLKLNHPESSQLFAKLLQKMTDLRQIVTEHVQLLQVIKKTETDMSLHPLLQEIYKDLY
test-readout: IC50 (µM)

{"chemical-string": "COc1cccc(CC(=O)N2Cc3ccc(S(=O)(=O)Nc4cnn(C5CCC5)n4)cc3C2)c1", "test-readout": "IC50", "meas-value": 4}

====

test: Intrinsic clearance in human liver microsomes; assay type: ADME; conditions: read-out: CLH

{"chemical-string": "COc1cccc(CC(=O)N2Cc3ccc(S(=O)(=O)Nc4cnn(C(C)C)n4)cc3C2)c1", "microsomal CLint": "< 8 µL/min/mg"}
{"chemical-string": "COc1cccc(CC(=O)N2Cc3ccc(S(=O)(=O)Nc4cnn(C5COC5)n4)cc3C2)c1", "microsomal CLint": "< 8 µL/min/mg"}
{"chemical-string": "COc1cccc(CC(=O)N2Cc3ccc(S(=O)(=O)Nc4cnn(C5CC(F)(F)C5)n4)cc3C2)c1", "microsomal CLint": "< 8 µL/min/mg"}
{"chemical-string": "COc1cccc(CC(=O)N2Cc3ccc(S(=O)(=O)N(C)CCc4cccc(F)c4)cc3C2)c1", "microsomal CLint": "> 320 µL/min/mg"}
{"chemical-string": "COc1cccc(CC(=O)N2Cc3ccc(S(=O)(=O)Nc4cnn(C)n4)cc3C2)c1", "microsomal CLint": "< 8 µL/min/mg"}
{"chemical-string": "COc1cccc(CC(=O)N2Cc3ccc(S(=O)(=O)Nc4cnn(C5CCC5)n4)cc3C2)c1", "microsomal CLint": "22 µL/min/mg"}
{"chemical-string": "COc1cccc(CC(=O)N2Cc3ccc(S(=O)(=O)NCCc4cccc(F)c4)cc3C2)c1", "microsomal CLint": "> 320 µL/min/mg"}
{"chemical-string": "COc1cccc(CC(=O)N2Cc3ccc(S(=O)(=O)Nc4cnn(-c5ccc(F)cc5)n4)cc3C2)c1", "microsomal CLint": "13 µL/min/mg"}
{"chemical-string": "COc1cccc(CC(=O)N2Cc3ccc(S(=O)(=O)Nc4cnn(C5CCOCC5)n4)cc3C2)c1", "microsomal CLint": "< 8 µL/min/mg"}
{"chemical-string": "COc1cccc(CC(=O)N2Cc3ccc(S(=O)(=O)Nc4cnn(-c5ccccc5)n4)cc3C2)c1", "microsomal CLint": "273 µL/min/mg"}

====

molecular target: CYP2C8 (Homo sapiens, UniProt P10632); experiment: Inhibition of CYP2C8 (unknown origin) at 3 uM; type: ADME
Sequence (P10632 whole entry): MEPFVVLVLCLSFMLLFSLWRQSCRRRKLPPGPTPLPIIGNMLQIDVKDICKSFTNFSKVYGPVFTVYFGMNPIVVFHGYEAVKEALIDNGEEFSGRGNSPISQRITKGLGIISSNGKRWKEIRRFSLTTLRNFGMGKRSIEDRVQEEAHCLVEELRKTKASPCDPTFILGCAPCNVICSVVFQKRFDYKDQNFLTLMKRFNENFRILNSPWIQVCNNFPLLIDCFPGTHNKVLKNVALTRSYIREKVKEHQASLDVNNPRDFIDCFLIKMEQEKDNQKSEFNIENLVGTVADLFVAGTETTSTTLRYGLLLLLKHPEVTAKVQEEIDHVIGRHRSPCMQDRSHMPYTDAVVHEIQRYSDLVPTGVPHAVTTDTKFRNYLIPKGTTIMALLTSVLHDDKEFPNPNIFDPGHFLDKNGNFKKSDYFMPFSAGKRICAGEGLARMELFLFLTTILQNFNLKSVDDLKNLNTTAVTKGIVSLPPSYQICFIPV

{"chemical-string": "COc1cccc(CC(=O)N2Cc3ccc(S(=O)(=O)Nc4cnn(-c5ccccc5)n4)cc3C2)c1", "inhibition at 3 µM / %": 48}
{"chemical-string": "COc1cccc(CC(=O)N2Cc3ccc(S(=O)(=O)NCCc4cccc(F)c4)cc3C2)c1", "inhibition at 3 µM / %": 29}
{"chemical-string": "COc1cccc(CC(=O)N2Cc3ccc(S(=O)(=O)Nc4cnn(-c5ccc(F)cc5)n4)cc3C2)c1", "inhibition at 3 µM / %": 62}

====

assay: Apparent permeability in RRCK cells; format: ADME, cell-based, Canis lupus familiaris, MDCKII-LE; conditions: dog, MDCK
Measured Papp of individual entries

{"chemical-string": "COc1cccc(CC(=O)N2Cc3ccc(S(=O)(=O)Nc4cnn(C5CCOCC5)n4)cc3C2)c1", "Papp / ×10⁻⁶ cm/s": 5}
{"chemical-string": "COc1cccc(CC(=O)N2Cc3ccc(S(=O)(=O)Nc4cnn(C)n4)cc3C2)c1", "Papp / ×10⁻⁶ cm/s": 1}
{"chemical-string": "COc1cccc(CC(=O)N2Cc3ccc(S(=O)(=O)Nc4cnn(-c5ccccc5)n4)cc3C2)c1", "Papp / ×10⁻⁶ cm/s": 15}
{"chemical-string": "COc1cccc(CC(=O)N2Cc3ccc(S(=O)(=O)Nc4cnn(-c5ccc(F)cc5)n4)cc3C2)c1", "Papp / ×10⁻⁶ cm/s": 6}
{"chemical-string": "COc1cccc(CC(=O)N2Cc3ccc(S(=O)(=O)Nc4cnn(C5COC5)n4)cc3C2)c1", "Papp / ×10⁻⁶ cm/s": 3}
{"chemical-string": "COc1cccc(CC(=O)N2Cc3ccc(S(=O)(=O)N(C)CCc4cccc(F)c4)cc3C2)c1", "Papp / ×10⁻⁶ cm/s": 4}
{"chemical-string": "COc1cccc(CC(=O)N2Cc3ccc(S(=O)(=O)Nc4cnn(C(C)C)n4)cc3C2)c1", "Papp / ×10⁻⁶ cm/s": 25}
{"chemical-string": "COc1cccc(CC(=O)N2Cc3ccc(S(=O)(=O)Nc4cnn(C5CC(F)(F)C5)n4)cc3C2)c1", "Papp / ×10⁻⁶ cm/s": 7}
{"chemical-string": "COc1cccc(CC(=O)N2Cc3ccc(S(=O)(=O)Nc4cnn(C5CCC5)n4)cc3C2)c1", "Papp / ×10⁻⁶ cm/s": 12}
{"chemical-string": "COc1cccc(CC(=O)N2Cc3ccc(S(=O)(=O)NCCc4cccc(F)c4)cc3C2)c1", "Papp / ×10⁻⁶ cm/s": 8}

====

experiment: Lipophilicity, logD of the compound at pH 7.4; type: physicochemical; settings: buffer
Could you mark each record Y if its logD falls strictly under 2, and N if it equals or exceeds it?

{"chemical-string": "COc1cccc(CC(=O)N2Cc3ccc(S(=O)(=O)Nc4cnn(C5CC(F)(F)C5)n4)cc3C2)c1", "assigned-class": "Y"}
{"chemical-string": "COc1cccc(CC(=O)N2Cc3ccc(S(=O)(=O)Nc4cnn(C)n4)cc3C2)c1", "assigned-class": "Y"}
{"chemical-string": "COc1cccc(CC(=O)N2Cc3ccc(S(=O)(=O)Nc4cnn(C5CCOCC5)n4)cc3C2)c1", "assigned-class": "Y"}
{"chemical-string": "COc1cccc(CC(=O)N2Cc3ccc(S(=O)(=O)N(C)CCc4cccc(F)c4)cc3C2)c1", "assigned-class": "N"}
{"chemical-string": "COc1cccc(CC(=O)N2Cc3ccc(S(=O)(=O)Nc4cnn(-c5ccccc5)n4)cc3C2)c1", "assigned-class": "N"}

====

experiment: Oral bioavailability in mouse at 5 mg/kg; type: ADME, organism-based; settings: in vivo
test-readout: bioavailability (%)

{"chemical-string": "COc1cccc(CC(=O)N2Cc3ccc(S(=O)(=O)Nc4cnn(C5CCC5)n4)cc3C2)c1", "test-readout": "bioavailability", "meas-value": 74}

====

assay: AUClast in mouse at 5 mg/kg, po; format: ADME, organism-based; set-up: dose 5 mg/kg, route oral, time 0 - last; settings: in vivo

{"chemical-string": "COc1cccc(CC(=O)N2Cc3ccc(S(=O)(=O)Nc4cnn(C5CCC5)n4)cc3C2)c1", "units-text": "µg·h/mL", "AUC(0-t)": 27}

====

target: CYP2C9 (Homo sapiens); test: Inhibition of CYP2C9 (unknown origin) at 3 uM; type: ADME
Sequence (P11712 whole entry): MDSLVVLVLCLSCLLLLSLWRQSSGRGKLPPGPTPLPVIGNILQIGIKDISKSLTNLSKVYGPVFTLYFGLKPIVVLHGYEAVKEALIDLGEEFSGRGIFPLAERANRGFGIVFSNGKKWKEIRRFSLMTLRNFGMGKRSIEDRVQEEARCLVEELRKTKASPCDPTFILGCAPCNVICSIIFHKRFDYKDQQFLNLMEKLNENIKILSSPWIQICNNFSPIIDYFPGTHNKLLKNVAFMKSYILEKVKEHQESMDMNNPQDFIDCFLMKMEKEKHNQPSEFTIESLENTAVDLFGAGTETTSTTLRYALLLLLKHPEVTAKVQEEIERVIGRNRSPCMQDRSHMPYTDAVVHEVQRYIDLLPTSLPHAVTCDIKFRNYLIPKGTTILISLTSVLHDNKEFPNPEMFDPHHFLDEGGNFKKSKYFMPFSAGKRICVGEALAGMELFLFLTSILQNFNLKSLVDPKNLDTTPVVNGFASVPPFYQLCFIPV
The molecules listed here are annotated with their inhibition at 3 µM.

{"chemical-string": "COc1cccc(CC(=O)N2Cc3ccc(S(=O)(=O)Nc4cnn(-c5ccc(F)cc5)n4)cc3C2)c1", "inhibition at 3 µM / %": 95}
{"chemical-string": "COc1cccc(CC(=O)N2Cc3ccc(S(=O)(=O)Nc4cnn(-c5ccccc5)n4)cc3C2)c1", "inhibition at 3 µM / %": 88}
{"chemical-string": "COc1cccc(CC(=O)N2Cc3ccc(S(=O)(=O)NCCc4cccc(F)c4)cc3C2)c1", "inhibition at 3 µM / %": 35}

Hey, just so you know, these numbers are from ChEMBL document CHEMBL3612040.
